Experiment: Agonist activity at VDR in human HL60 cells assessed as induction of cell differentiation by measuring increase in NBT positive cells by Wright staining based microscopic method
QUANTITY_KIND: pEC50
As a rule, pEC50 stands for the negative log10 of the concentration, concentration in M.

Worked set:
CCN(CC)CCNC(=O)c1ccc(C(CC)(CC)c2ccc(OCC(O)C(C)(C)C)c(C)c2)n1CC (stereo not drawn)
8.19
CCn1c(C(=O)NCC(=O)O)ccc1C(CC)(CC)c1ccc(C#CC(O)(CC)CC)c(C)c1
8.03
CCn1cc(C(CC)(CC)c2ccc(C#CC(O)(CC)CC)c(C)c2)cc1C(=O)NCC(=O)OC
6.54
CCN(CC)CCCNC(=O)c1ccc(C(CC)(CC)c2ccc(C#CC(O)(CC)CC)c(C)c2)n1CC
7.16
CCn1cc(C(CC)(CC)c2ccc(C#CC(O)(CC)CC)c(C)c2)cc1C(=O)NCCCN(C)C
6.85
CCn1cc(C(CC)(CC)c2ccc(C#CC(O)(CC)CC)c(C)c2)cc1C(=O)OCCO
7.89
CCn1c(C(=O)NCCC(=O)O)ccc1C(CC)(CC)c1ccc(C#CC(O)(CC)CC)c(C)c1
6.53
CCn1cc(C(CC)(CC)c2ccc(C#CC(O)(CC)CC)c(C)c2)cc1C(=O)N[C@H](C(=O)O)C(C)C
7.89

Endpoint output: pEC50 of `CCN(CC)CCNC(=O)c1cc(C(CC)(CC)c2ccc(C#CC(O)(CC)CC)c(C)c2)cn1CC` . Value? 8.15

Endpoint output: pEC50 of `CCn1c(C(=O)N[C@H](C(=O)O)C(C)C)ccc1C(CC)(CC)c1ccc(C#CC(O)(CC)CC)c(C)c1` . Value? 7.74

Endpoint output: pEC50 of `CCN(CC)CCNC(=O)c1ccc(C(CC)(CC)c2ccc(C#CC(O)(CC)CC)c(C)c2)n1CC` . Value? 8.00
